Every entry's value here was drawn from patent US20080107658A1.

Target: human nerve growth factor (beta-NGF) (human, UniProt P01138 122-241)
Sequence (P01138 122-241): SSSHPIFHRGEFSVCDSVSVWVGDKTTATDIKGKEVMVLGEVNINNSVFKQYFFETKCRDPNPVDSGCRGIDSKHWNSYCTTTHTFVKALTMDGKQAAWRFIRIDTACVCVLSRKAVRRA
Assay: cell-based or functional assay
Collected IC50, PC12 cell survival values appear next to each entry.

Completed entries (count: 2):
[
  {
    "Binder": "1127D9 human IgG4 (antibody, V domains shown) VH: EVQLVQSGAEVKKPGSSVKVSCKASGGTFSTYGISWVRQAPGQGLEWIGGIIPIFDTGNSAQSFQGRVTITADESTSTAYMEVSSLRSDDTAVYYCASSSRIYDYHTIAYYDMDVWGQGTMVTVSS VL: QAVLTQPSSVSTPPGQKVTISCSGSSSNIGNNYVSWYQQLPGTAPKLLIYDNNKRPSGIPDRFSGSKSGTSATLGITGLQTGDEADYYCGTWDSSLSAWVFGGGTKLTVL",
    "Experimental Result": "0.57 nM"
  },
  {
    "Binder": "1146D7 human IgG4 (antibody, V domains shown) VH: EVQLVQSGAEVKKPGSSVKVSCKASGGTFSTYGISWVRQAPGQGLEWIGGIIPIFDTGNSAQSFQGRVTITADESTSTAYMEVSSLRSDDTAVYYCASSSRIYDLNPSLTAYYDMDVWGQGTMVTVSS VL: QAVLTQPSSVSTPPGQEVTISCSGSSTNIGNNYVSWYQQLPGTAPKLLIYDNNKRPSGIPDRFSGSKSGTSATLGITGLQTGDEADYYCGTWDSSLSAWVFGGGTKLTVL",
    "Experimental Result": "0.48 nM"
  }
]

In the following, a different binder is considered.
stdin: Tell me measured IC50, PC12 cell survival for 1230D8 human IgG4 (antibody, V domains shown) VH: QMQLVQSGAEVKKTGSSVKVSCKASGYTFPYHYLHWVRQAPGQGLEWMGGIIPIFGTTNYAQRFQDRVTITADESTSTAYMEFSSLRSEDTAVYYCASADYVWESYHPATSLSLWGRGTMVTVSS VL: QSVLTQPPSVSAAPGQKVTISCPGSTSNIGNNYVSWYQQRPGKAPKLMIYDVSKRPSGVPDRFSGSKSGNSASLDISELQSEDEADYYCAAWDDSLSEFLFGTGTKLTVL please.
stdout: 0.71 nM
